System: HDAC activity in primary mouse cortical cultures
Assay Name: Whole-Cell Histone Deacetylase (HDAC) Inhibition Assay in Primary Mouse Cortical Cultures
Format: cell-based
Conditions: whole-cell (WC), mouse cortical neurons; Table 10; read-out: HDAC Inhibition (IC50 μM) WC mouse cortical neurons
Observed Property: IC50

Examples with their reported IC50 follow.
[
  {
    "Chemical Structure": "O=C(NO)c1cnc(N2CCN(C3c4ccccc4CCc4ccccc43)CC2)nc1",
    "Observed Property": "IC50",
    "Measured Result": "5 to 15 µM"
  },
  {
    "Chemical Structure": "O=C(NO)c1cnc(OC(c2ccc(F)cc2)c2ccc(F)cc2)nc1",
    "Observed Property": "IC50",
    "Measured Result": "> 15 µM"
  },
  {
    "Chemical Structure": "O=C(NO)c1cnc(N2CCCN(C(=O)OCc3ccccc3)CC2)nc1",
    "Observed Property": "IC50",
    "Measured Result": "1 to 5 µM"
  }
]

// input: 5 compounds below; output: IC50 for each
1. CN1CCC2=C(C1)Oc1ccccc1N(CCOc1ccc(C(=O)NO)cc1)C2=O
2. O=C(CCCCCCN1C(=O)c2ccccc2Sc2ccccc21)NO
3. O=C(NO)c1cnc(NC2c3ccccc3C=Cc3ccccc32)nc1
4. O=C(NO)c1ccc(CON=C2c3ccccc3CCc3ccccc32)cc1
5. O=C(CCCCCCn1c(=O)c2ccccc2c2ccccc21)NO

A:
["< 1 µM", "< 1 µM", "< 1 µM", "5 to 15 µM", "< 1 µM"]

====

Study System: one or more of HDAC-1, HDAC-2, HDAC-3, HDAC-4, HDAC-5, HDAC-6, HDAC-7, HDAC-8, HDAC-9, HDAC-10 and HDAC-11
Assay Name: Inhibition of Histone Deacetylase Enzymatic Activity (Boc-Lys(Ac)-AMC substrate, Fluor-de-Lys developer)
Type: biochemical
Conditions: Table 9; read-out: HDAC Inhibition (IC50 μM) HDAC Enzyme
Observed Property: IC50

[
  {
    "Chemical Structure": "O=C(NO)c1cnc(N2C[C@@H]3C[C@H]2CN3)nc1",
    "IC50": "0.1 to 1 µM"
  },
  {
    "Chemical Structure": "O=C(NO)c1cnc(N2C[C@@H]3C[C@H]2CN3c2cccc(OC(F)F)c2)nc1",
    "IC50": "< 0.05 µM"
  },
  {
    "Chemical Structure": "O=C(NO)c1cnc(N2C[C@@H]3C[C@H]2CN3c2ccc(C(F)(F)F)cc2)nc1",
    "IC50": "< 0.05 µM"
  },
  {
    "Chemical Structure": "Cc1ccc(N2C[C@@H]3C[C@H]2CN3c2ncc(C(=O)NO)cn2)cc1",
    "IC50": "< 0.05 µM"
  },
  {
    "Chemical Structure": "O=C(NO)c1cnc(N2C[C@@H]3C[C@H]2CN3c2cc(C(F)(F)F)nc3ccccc23)nc1",
    "IC50": "< 0.05 µM"
  },
  {
    "Chemical Structure": "O=C(NO)c1cnc(N2C[C@@H]3C[C@H]2CN3c2nccc(C(F)(F)F)n2)nc1",
    "IC50": "< 0.05 µM"
  },
  {
    "Chemical Structure": "N#Cc1cccc(N2C[C@@H]3C[C@H]2CN3c2ccc(C(=O)NO)cc2)c1",
    "IC50": "0.1 to 1 µM"
  },
  {
    "Chemical Structure": "O=C(NO)c1cnc(N2C[C@@H]3C[C@H]2CN3C(=O)OC2CCOCC2)nc1",
    "IC50": "< 0.05 µM"
  },
  {
    "Chemical Structure": "Cc1cccc(N2C[C@H]3C[C@@H]2CN3c2ccc(C(=O)NO)cc2)c1",
    "IC50": "0.1 to 1 µM"
  }
]

Kindly consider the entry below.
Q: Give the measured IC50 of `Cc1ccccc1N1C[C@@H]2C[C@H]1CN2c1ncc(C(=O)NO)cn1` .
A: 0.05 to 0.1 µM
